target: TDP-43 (Homo sapiens, UniProt Q13148 1-414); assay: RNA Bind-n-Seq with designed 260-mer pool; 25 mM Tris-HCl, 150 mM KCl, 3 mM MgCl2, BSA (printed 500 mg/mL), 20 units/mL SUPERase IN; pH not stated; 500 nM RNA pool, 1 h, 4 C; TDP-43 5, 50, 500 nM; high values mean tight binding; conditions: protein: recombinant; tags: SBP (GST cleaved off with PreScission; pGEX-GST-SBP)
Sequence (Q13148 whole entry): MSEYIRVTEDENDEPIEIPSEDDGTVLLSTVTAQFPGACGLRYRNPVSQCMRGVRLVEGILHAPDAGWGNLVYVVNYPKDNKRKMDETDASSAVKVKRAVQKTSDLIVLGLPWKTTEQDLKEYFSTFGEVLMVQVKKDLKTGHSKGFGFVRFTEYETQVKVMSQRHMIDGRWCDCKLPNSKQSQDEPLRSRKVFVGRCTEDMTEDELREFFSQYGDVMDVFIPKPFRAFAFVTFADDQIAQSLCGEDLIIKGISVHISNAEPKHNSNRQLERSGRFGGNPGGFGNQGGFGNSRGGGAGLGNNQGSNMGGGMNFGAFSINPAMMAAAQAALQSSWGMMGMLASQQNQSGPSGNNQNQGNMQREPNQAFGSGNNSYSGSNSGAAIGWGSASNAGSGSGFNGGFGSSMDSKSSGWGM
In all, about 9,900 sequences were measured (“r (bound/input frequency ratio)”: median about 0.7, highest 2% from about 6.5 on). This excerpt belongs to a sample that is enriched for the highest values.
binding signal values, listed per item
READOUT LABEL: binding signal

ENSMUSG00000031028.668|Tub (ssRNA) RNA: GGGAGUUCUACAGUCCGACGAUCGCUUCGAUAUCCGCAUGCUAGGCAAAAUUUCUCUAGCUGAGAGCACACUUAGCCAGUUUUCACGCCUAGAACAUAUAUGUCGAUUUGCACAUGAUUGUCUUUUCCUAUUUUGGAGUGGUCAGACAUUUUAUUUUUGUUCAAAAUUAUCUGGAGUUUUAGACAAACUUGCAAAACUGUGCUUUUAUUAAGUGACUUUUUGAAUAAACUUUUUGGUAUUCUGAAGCAAAUGUAUUUAUUUAUUGGUAUGUGCAAUGACAAACUUGGUAUUUUCCCAUAAUGACUCUUGCGGUCGCACUAGUGUGGAAUUCUCGGGUGUCAAGG : 0.159 R (bound/input frequency ratio)
ENSMUSG00000029636.74|Wasf3 (ssRNA) RNA: GGGAGUUCUACAGUCCGACGAUCGCUUCGAUAUCCGCAUGCUACCCACGUCAGCUCUCUGCAAGAUCACUGGCUGUGUGUCUCAGUGAUGUCUUCCAACCAGUGGGUGAUACGUUUUCCUGUUUCUUCCCUUUGCAAAUUGAAUUCCAGGUAGAUAUGGUUGUAGAGGGGAAAGUUUAACAAAUCAGAAUGAAAUGUUUGUCUGUUUGCACACUGGGCCUGGUGGCCUCCAAGGAAAUGUGUACGAUCGUUUGCUUUCUCUAUCUUGGCGCUUGCAACCGAGAGCGGCCAUUUUUAUGAGGGGCUCUUGCGGUCGCACUAGUGUGGAAUUCUCGGGUGUCAAGG : 2.22 R (bound/input frequency ratio)
ENSMUSG00000043670.75|Diras1 (ssRNA) RNA: GGGAGUUCUACAGUCCGACGAUCGCUUCGAUAUCCGCAUGCUAUUUGAUCCCUGUGGAUCUGAAAACAGGGACCUGGCUAAGGAACUGCUCAUCCCAGUCAGGCCCAGAGAGGUUACCUUGCCUCUCCAUCUCUGUCCCUGUGUGCCCAGCCAUGCCCACUGUCCCUGUCCCUCACAUUCUAUCACUGUGACCUCUGGGGAGUGCCCAUUGACCUCAUCUUCCUUCACUAAUAUCUUAUUUCUUUCACCUGAUCCUGUCCUUUCCCCGUGACCUCUGACCUGUGGCCUUCCCUGGGUCCAGAACUCUUGCGGUCGCACUAGUGUGGAAUUCUCGGGUGUCAAGG : 2.09 R (bound/input frequency ratio)
ENSMUSG00000004113.177|Cacna1b|55:59;63:67;78:82;232:236 (ssRNA) RNA: GGGAGUUCUACAGUCCGACGAUCGCUUCGAUAUCCGCAUGCUAGUAACUUUAAAAAAAAAGUCAACAUGUAGGAAGGUCUCCAUUUUGCAUUGUUUCACACACUUCAUACCAAUGUUCCUCAUACUUUCUACCCUGCCUGGGAUGUCCCCAAUGACCCUGGCUCCUCUGCUCAACCAAGUGCCUGAUCUCUGGCUCUGAGCAUCGUGGAUGAGGUACGGCCUCAGGAAGCAUCGGGUGGAUUGGGUGGGAGCUGCUCAGAGCAGCACGGGGGCUACACACUUAGGGACAUUGACAGUGUCCAUCUCUUGCGGUCGCACUAGUGUGGAAUUCUCGGGUGUCAAGG : 0.533 R (bound/input frequency ratio)
